- TEST PROTOCOL: Biodistribution in ICR mice after an iv injection
- Format: in vivo
- ASSAY CONDITIONS: Skin, 2 hr after iv injection
Entries and their % dose/organ
Just the number in % dose/organ, nothing appended.

# annotated cases, reported % dose/organ shown
>>> df
                                   molecule  reported_endpoint  reported_result
0  CN(C)c1ccc(-c2ccc3nc(OCCOCCOCC[18F])ccc3c2)cc1 [[^18F]32a]       % dose/organ             3.11
1  CNc1ccc(-c2ccc3nc(OCCOCCOCC[18F])ccc3c2)cc1 [[^18F]34a]       % dose/organ             4.12
2  CNc1ccc2cc(-c3ccc(OCCOCCOCC[18F])cc3)ccc2c1 [[^18F]19a]       % dose/organ             2.81

For the next question, use this molecule.
I would be grateful if you could share the reported % dose/organ for CNc1ccc(-c2ccc3cc(OCCOCCOCCF)ccc3c2)cc1 .
4.60
